B1: tRNA (parent)
chain: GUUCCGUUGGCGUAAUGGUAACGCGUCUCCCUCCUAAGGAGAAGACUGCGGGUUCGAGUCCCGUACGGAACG

# Variants of: B1
# test_method_notes: yeast fitness relative to wild type (ratio to wild type); higher = fitter; tRNA-Arg(CCU), competitive growth, 37 C, YPD
Fewer inactive variants are shown than the library holds.
# yeast fitness listing for each entry below
Kindly provide the number alone.

Example cases with answers are listed next.
In [3]: df
Out[3]:
      residue_change  endpoint_label  reading
0           G9A U54C   yeast fitness    0.841
1  C4A C5U C22U C34A   yeast fitness    0.576
2          C31U G44A   yeast fitness     1.02

Ask | Value lookup for yeast fitness; key = U26C G38C
Reply | 0.717

Ask | Another: A15C G25A A65C
Reply | 0.711

Origin of measurements: the RNAGym collection of RNA variant scans (doi:10.1126/science.aae0568)
